Values from patent US9914736B2

- Experimental system: UniProtKB P04629
- Assay procedure: DiscoverX PathHunter TrkA functional assay
- Experimental context: U2OS cells expressing human TrkA-ProLink, Shc1-EA and p75NTR; compound 1 h, then NGF at ~80% of maximal response for 3 h; luminescence
Experimental endpoint: IC50 (nM)

Recorded IC50, per entry:
- Compound: "Cn1ccc(-c2cc(C(=O)Nc3cc(Cc4cncnc4)nn3-c3ccc(F)cc3)ccc2C(F)(F)F)n1 [Compound 95]"
  Experimental system: "UniProtKB P04629"
  Experimental endpoint: "IC50"
  Reported result: 1.4
- Compound: "Cc1cc(-c2nn(C)cc2NC(=O)c2ccc(C(F)(F)F)c(-c3ccn(C)n3)c2)[nH]n1 [Compound 74]"
  Experimental system: "UniProtKB P04629"
  Experimental endpoint: "IC50"
  Reported result: 180
- Compound: "Cn1ccc(-c2cc(C(=O)Nc3cc(Cc4cnc(N)nc4)nn3-c3ccc(F)cc3)ccc2C(F)(F)F)n1 [Compound 91]"
  Experimental system: "UniProtKB P04629"
  Experimental endpoint: "IC50"
  Reported result: 6.1
- Compound: "Cn1ccc(-c2cc(C(=O)Nc3cc(Cc4nnnn4C)nn3-c3ccccc3)c(Cl)cc2C(F)(F)F)n1 [Compound 80]"
  Experimental system: "UniProtKB P04629"
  Experimental endpoint: "IC50"
  Reported result: 0.78
- Compound: "NC(=O)OCc1cc(NC(=O)c2cc(-c3ncccn3)c(C(F)(F)F)cc2F)n(-c2ccc(F)cc2)n1 [Compound 110]"
  Experimental system: "UniProtKB P04629"
  Experimental endpoint: "IC50"
  Reported result: 7

[a] O=C(Nc1cc(C(=O)N2CCC2)nn1-c1ccc(F)cc1)c1cc(-c2ncccn2)c(C(F)(F)F)cc1F [Compound 88]
[b] O=C(Nc1cc(-c2ncccn2)nn1-c1ccc(F)cc1)c1cc(-c2cc[nH]n2)c(C(F)(F)F)cc1F [Compound 64]
Would you mind telling me which has the lower recorded IC50 between a and b ? The response must carry the label of the picked entry. a
(a: 14 nM, b: 22 nM)

* * *

- Experimental system: human TrkA receptor (Homo sapiens (Human))
- Assay procedure: DiscoverX PathHunter TrkA functional assay
- Experimental context: U2OS cells expressing human TrkA-ProLink, Shc1-EA and p75NTR; compound 1 h, then NGF at ~80% of maximal response for 3 h; luminescence
pIC50: −log10 of the molar value.
Experimental endpoint: pIC50

[P] Cn1ccc(-c2cc(C(=O)Nc3cc(-c4ccncc4)nn3-c3cc(C(F)(F)F)n[nH]3)ccc2Cl)n1 [Compound 40]
[Q] Cn1ccc(-c2cc(C(=O)Nc3cc(Cc4nnnn4C)nn3-c3ccc(F)cc3)c(F)cc2C(F)(F)F)n1 [Compound 102]
[R] Cc1nc(NC(=O)c2ccc(C(F)(F)F)c(-c3ccn(C)n3)c2)c(-c2ccccc2)s1 [Compound 72]
[S] Cc1nc(-c2ccccc2)c(NC(=O)c2ccc(C(F)(F)F)c(-c3ccn(C)n3)c2)[nH]1 [Compound 13]
Order the 4 listed items from lowest to highest according to pIC50. Form entry: ranked labels (order as requested). R, S, P, Q

[P] CNC(=O)Cc1cc(NC(=O)c2cc(-c3ccn(C)n3)c(C(F)(F)F)cc2F)n(-c2ccc(F)cc2)n1 [Compound 114]
[Q] Cc1cc(-n2nc(CC(=O)Nc3ccccn3)cc2NC(=O)c2ccc(C(F)(F)F)c(-c3ccn(C)n3)c2)[nH]n1 [Compound 22]
Between P and Q , whose recorded pIC50 is greater? The response must carry the label of the picked entry. P

* * *

- Experimental system: UniProtKB P04629
- Assay procedure: DiscoverX PathHunter TrkA functional assay
- Experimental context: U2OS cells expressing human TrkA-ProLink, Shc1-EA and p75NTR; compound 1 h, then NGF at ~80% of maximal response for 3 h; luminescence
Experimental endpoint: IC50 (nM)

- Given smiles: "Cn1ccc(-c2cc(C(=O)Nc3cn(C)nc3-c3ccccc3)c(F)cc2C(F)(F)F)n1"
  Experimental endpoint: "IC50"
  Reported result: 4.5
- Given smiles: "Cn1ccc(-c2cc(C(=O)Nc3snnc3-c3ccccc3)ccc2C(F)(F)F)n1"
  Experimental endpoint: "IC50"
  Reported result: 2800
- Given smiles: "Cc1cc(-n2nc(CN3CCCC3)cc2NC(=O)c2ccc(C(F)(F)F)c(-c3ccn(C)n3)c2)[nH]n1"
  Experimental endpoint: "IC50"
  Reported result: 240

[I] Cn1ccc(-c2cc(C(=O)Nc3cnoc3-c3ccccc3)ccc2C(F)(F)F)n1
[II] Cn1ccc(-c2cc(C(=O)Nc3cn(C)nc3-c3ccccc3)ccc2C(F)(F)F)n1
[III] Cc1cc(-n2nc(-c3cnn(C)c3)cc2NC(=O)c2ccc(C(F)(F)F)c(-c3cccnc3)c2)n[nH]1
[IV] Cn1ccc(-c2cc(C(=O)Nc3c4c(nn3-c3ccc(F)cc3)CCC4)ccc2C(F)(F)F)n1
I would appreciate it if you could sort these 4 molecules by IC50, starting from the smallest number. Form entry: ranked labels (order as requested). II, IV, I, III

* * *

- Experimental system: human TrkA receptor (Homo sapiens (Human))
- Assay procedure: DiscoverX PathHunter TrkA functional assay
- Experimental context: U2OS cells expressing human TrkA-ProLink, Shc1-EA and p75NTR; compound 1 h, then NGF at ~80% of maximal response for 3 h; luminescence
pIC50: −log10 of the molar value.
Experimental endpoint: pIC50

[I] Cc1coc(-c2cc(C(=O)Nc3cc(-c4cn[nH]c4)nn3-c3cc(C)[nH]n3)ccc2C(F)(F)F)n1 [Compound 61]
[II] CC(=O)n1cc(NC(=O)c2ccc(C(F)(F)F)c(-c3ccn(C)n3)c2)c(-c2ccccc2)n1 [Compound 33]
Between I and II , whose recorded pIC50 is greater? The response must carry the label of the picked entry. I

[P] Cc1c(Cl)cc(C(=O)Nc2cc(-c3ccncc3)nn2-c2ccccc2)cc1Cl [Compound 23]
[Q] CC(O)c1ccc(-c2cc(NC(=O)c3cc(-c4ncccn4)c(C(F)(F)F)cc3F)n(-c3ccc(F)cc3)n2)nc1 (single isomer, unassigned) [Compound 100]
Between P and Q , whose recorded pIC50 is greater? The response must carry the label of the picked entry. Q
(Q: 7.92, P: 6.17)

* * *

- Experimental system: human TrkA receptor (Homo sapiens (Human), UniProt P04629)
- Sequence (P04629 33-796): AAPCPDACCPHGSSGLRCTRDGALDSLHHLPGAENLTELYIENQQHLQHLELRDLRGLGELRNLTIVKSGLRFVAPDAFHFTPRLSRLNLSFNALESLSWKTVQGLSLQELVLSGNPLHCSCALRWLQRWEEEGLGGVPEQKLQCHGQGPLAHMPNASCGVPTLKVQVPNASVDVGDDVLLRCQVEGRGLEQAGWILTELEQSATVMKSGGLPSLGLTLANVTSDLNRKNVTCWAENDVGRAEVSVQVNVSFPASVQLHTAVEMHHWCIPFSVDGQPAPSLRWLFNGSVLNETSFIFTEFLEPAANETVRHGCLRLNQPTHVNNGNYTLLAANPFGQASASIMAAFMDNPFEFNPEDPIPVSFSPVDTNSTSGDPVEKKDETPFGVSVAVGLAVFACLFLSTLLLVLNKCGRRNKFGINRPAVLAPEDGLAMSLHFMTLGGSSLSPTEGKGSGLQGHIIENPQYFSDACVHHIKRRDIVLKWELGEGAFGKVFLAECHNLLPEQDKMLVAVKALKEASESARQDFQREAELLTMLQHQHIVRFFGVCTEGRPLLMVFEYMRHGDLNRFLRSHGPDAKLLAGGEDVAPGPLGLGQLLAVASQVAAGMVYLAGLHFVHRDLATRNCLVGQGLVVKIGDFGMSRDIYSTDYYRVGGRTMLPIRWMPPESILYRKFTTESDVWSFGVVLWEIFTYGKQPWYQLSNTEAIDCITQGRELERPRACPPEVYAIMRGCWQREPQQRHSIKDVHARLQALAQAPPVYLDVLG
- Assay procedure: DiscoverX PathHunter TrkA functional assay
- Experimental context: U2OS cells expressing human TrkA-ProLink, Shc1-EA and p75NTR; compound 1 h, then NGF at ~80% of maximal response for 3 h; luminescence
Experimental endpoint: IC50 (nM)

[P] CCn1ccc(-c2cc(C(=O)Nc3cc(C)nn3-c3ccc(F)cc3)ccc2C(F)(F)F)n1
[Q] O=C(Nc1cc(-c2ccc(=O)[nH]n2)nn1-c1ccccc1)c1ccc(C(F)(F)F)cc1Cl
Would you mind telling me which has the lower recorded IC50 between P and Q ? The response must carry the label of the picked entry. P
(P: 89 nM, Q: 290 nM)

[a] Cc1cc(NC(=O)c2cc(-c3cc[nH]n3)ccc2Cl)n(-c2cc(C)[nH]n2)n1
[b] Cn1ccc(-c2cc(C(=O)Nc3c(-c4ccccc4)ncn3C)ccc2C(F)(F)F)n1
Would you mind telling me which has the lower recorded IC50 between a and b ? The response must carry the label of the picked entry. b

* * *

- Experimental system: human TrkA receptor (Homo sapiens (Human))
- Assay procedure: DiscoverX PathHunter TrkA functional assay
- Experimental context: U2OS cells expressing human TrkA-ProLink, Shc1-EA and p75NTR; compound 1 h, then NGF at ~80% of maximal response for 3 h; luminescence
pIC50: −log10 of the molar value.
Experimental endpoint: pIC50

Recorded pIC50, per entry:
- Compound: "Cn1ccc(-c2cc(C(=O)Nc3cc(Cc4cc[nH]n4)nn3-c3ccc(F)cc3)ccc2C(F)(F)F)n1 [Compound 96]"
  pIC50: 8.43
- Compound: "Cc1cnn(-c2ccccc2)c1NC(=O)c1cc(-c2ccn(C)n2)c(C(F)(F)F)cc1Cl [Compound 46]"
  pIC50: 7.89
- Compound: "Cn1ccc(-c2cc(C(=O)Nc3cc(Cn4ncnn4)nn3-c3ccccc3)ccc2C(F)(F)F)n1 [Compound 67]"
  pIC50: 8.43

[A] Cn1ccc(-c2cc(C(=O)Nc3c4c(nn3-c3ccccc3)CC(=O)NC4)c(F)cc2C(F)(F)F)n1 [Compound 108]
[B] Cn1ccc(-c2cc(C(=O)Nc3cc(-c4n[nH]c(=O)n4C)nn3-c3ccccc3)ccc2C(F)(F)F)n1 [Compound 16]
Between A and B , whose recorded pIC50 is greater? The response must carry the label of the picked entry. A
(A: 8.34, B: 7.34)

* * *

- Experimental system: human TrkA receptor (Homo sapiens (Human), UniProt P04629)
- Assay procedure: DiscoverX PathHunter TrkA functional assay
- Experimental context: U2OS cells expressing human TrkA-ProLink, Shc1-EA and p75NTR; compound 1 h, then NGF at ~80% of maximal response for 3 h; luminescence
Experimental endpoint: IC50 (nM)

- Given smiles: "Cc1cc(-n2nc(C(=O)NC3CN(C)C3)cc2NC(=O)c2ccc(C(F)(F)F)c(-c3ccn(C)n3)c2)[nH]n1"
  Experimental system: "human TrkA receptor (Homo sapiens (Human), UniProt P04629)"
  IC50, nM: 10
- Given smiles: "Cn1ccc(-c2cc(C(=O)Nc3cc(-c4ccc(=O)[nH]n4)nn3-c3ccccc3)c(Cl)cc2C(F)(F)F)n1"
  Experimental system: "human TrkA receptor (Homo sapiens (Human), UniProt P04629)"
  IC50, nM: 1.6
- Given smiles: "Cc1c(-c2cnn(C)c2)nn(-c2ccccc2)c1NC(=O)c1ccc(C(F)(F)F)c(-c2ccn(C)n2)c1"
  Experimental system: "human TrkA receptor (Homo sapiens (Human), UniProt P04629)"
  IC50, nM: 11
- Given smiles: "Cc1csc(-c2cc(C(=O)Nc3cc(C)nn3-c3ccccc3)ccc2C(F)(F)F)n1"
  Experimental system: "human TrkA receptor (Homo sapiens (Human), UniProt P04629)"
  IC50, nM: 5.4
- Given smiles: "Cc1cc(-n2nc(CO)cc2NC(=O)c2ccc(C(F)(F)F)c(-c3ccn(C)n3)c2)[nH]n1"
  Experimental system: "human TrkA receptor (Homo sapiens (Human), UniProt P04629)"
  IC50, nM: 2.9

[A] O=C(Nc1cc(-c2ccncc2)nn1-c1ccc(F)cc1)c1ccc(C(F)(F)F)c(-c2cccnc2)c1
[B] NC(=O)c1ccc(-c2cc(NC(=O)c3cc(-c4ncccn4)c(C(F)(F)F)cc3F)n(-c3ccc(F)cc3)n2)cc1
[C] O=C(Nc1cc(CCO)nn1-c1ccc(F)cc1)c1cc(-c2ncccn2)c(C(F)(F)F)cc1F
[D] Cn1ccc(-c2cc(C(=O)Nc3c(-c4ccccc4)nc(C(N)=O)n3C)ccc2C(F)(F)F)n1
[E] O=C(Nc1cc(-c2ccncc2)nn1-c1ccc(F)cc1)c1ccc(C(F)(F)F)c(-c2ncns2)c1
Order the records by IC50, with each subsequent value no larger than the one before. Form entry: ranked labels (order as requested). A, E, C, D, B
(A: 1700 nM, E: 350 nM, C: 12 nM, D: 5.7 nM, B: 0.76 nM)

[P] O=C(Nc1cc(-c2ccncc2)nn1-c1ccc(F)cc1)c1ccc(C(F)(F)F)c(-c2cc[nH]c(=O)c2)c1
[Q] Cn1ccc(-c2cc(C(=O)Nc3cn(CCO)nc3-c3ccccc3)c(F)cc2C(F)(F)F)n1
[R] Cn1ccc(-c2cc(C(=O)Nc3cc(Cc4cnc(N)cn4)nn3-c3ccc(F)cc3)ccc2C(F)(F)F)n1
Order the records by IC50, with each subsequent value no larger than the one before. Form entry: ranked labels (order as requested). P, Q, R
(P: 1240 nM, Q: 16 nM, R: 1.7 nM)
